- Assay procedure: Panobinostat plasma PK in the PANORAMA-1 phase 3 trial (Japan subset)
- Format: in vivo, human
- Test conditions: human, plasma, oral; PANORAMA-1 cycle 1 day 8, PAN + BTZ + Dex, N = 12; geometric mean (% CV); read-out: AUC0-24
Property name: AUC(0-t) (ng·h/mL)
Return type: number; implicit unit ng·h/mL.

Note to self: AUC(0-t) recorded for Cc1[nH]c2ccccc2c1CCNCc1ccc(/C=C/C(=O)NO)cc1 [panobinostat, Panobinostat] was 95

====

- Assay procedure: Panobinostat plasma PK in the PANORAMA-1 phase 3 trial (Japan subset)
- Format: in vivo, human
- Test conditions: human, plasma, oral; PANORAMA-1 cycle 1 day 8, PAN + BTZ + Dex, N = 12; geometric mean (% CV)
Property name: half-life (h)
Return type: number; implicit unit h.

Note to self: half-life recorded for Cc1[nH]c2ccccc2c1CCNCc1ccc(/C=C/C(=O)NO)cc1 was 16.7

====

- Assay procedure: Panobinostat plasma PK in the PANORAMA-1 phase 3 trial (Japan subset)
- Type: in vivo, human
- Test conditions: human, plasma, oral; PANORAMA-1 cycle 1 day 8, PAN + BTZ + Dex, N = 12; geometric mean (% CV); read-out: Vz/F
Property name: Vd/F (L)
Return type: number; implicit unit L.

Note to self: Vd/F recorded for Cc1[nH]c2ccccc2c1CCNCc1ccc(/C=C/C(=O)NO)cc1 was 3550
